Listing of entries alongside the reported k2/Ks N119S (catalytic efficiency of phosphotransfer).
# Tgt: Dictyostelium NDP Kinase N119S (Dictyostelium discoideum, UniProt P22887, N119S)
# Construct: made in house
# Sequence (P22887 whole entry N119S): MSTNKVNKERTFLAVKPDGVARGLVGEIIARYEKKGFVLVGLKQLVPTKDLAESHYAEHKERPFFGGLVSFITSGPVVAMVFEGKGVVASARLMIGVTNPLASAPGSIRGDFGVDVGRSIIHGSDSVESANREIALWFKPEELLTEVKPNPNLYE
# Test summary: Pre-steady-state fluorescence stopped-flow phosphotransfer from nucleoside triphosphates, N119S Dd-NDPK
# Assay type: biochemical
# Protocol conditions: pre-steady state, stopped-flow; average of three determinations
Attribute measured: k2/Ks N119S (catalytic efficiency of phosphotransfer) (M⁻¹ s⁻¹)

Line notation	Obs value
Cc1cn([C@H]2C[C@H](N=[N+]=[N-])[C@@H](COP(=O)(O)OP(=O)(O)OP(=O)(O)O)O2)c(=O)[nH]c1=O	1100
Nc1nc2c(ncn2[C@H]2CC[C@@H](COP(=O)(O)OP(=O)(O)OP(=O)(O)O)O2)c(=O)[nH]1	3500
Nc1ncnc2c1ncn2[C@@H]1O[C@H](COP(=O)(O)OP(=O)(O)OP(=O)(O)O)[C@@H](O)[C@H]1O	250000
Cc1cn([C@H]2C[C@H](O)[C@@H](COP(=O)(O)OP(=O)(O)OP(=O)(O)O)O2)c(=O)[nH]c1=O	430000
Nc1nc2c(ncn2COCCOP(=O)(O)OP(=O)(O)OP(=O)(O)O)c(=O)[nH]1	1650
